# study-target: UniProt:P97612
# assay-notes: FAAH enzyme assay: inhibition of anandamide (AEA) hydrolysis, arachidonic acid quantified by HPLC
# Type: biochemical
# condition-description: one-point assay, inhibitor 100 nM; partially purified rat brain FAAH, 15 min; read-out: % Inhibition (Concentration)
Classification field: criterion met = inhibition at 0.1 µM at or over 50%; criterion not met = inhibition at 0.1 µM under 50%.

In [3]: df
Out[3]:
                                   compound         class_name
0  Cc1nnc(C(=O)C(F)(F)c2ccc(-c3ccccc3)cc2)o1  criterion not met
1  OC(O)(c1ccccn1)C(F)(F)CCCCOc1ccccc1 [Compound 89.9 Hydrate form]      criterion met
2         O=C(c1ccccn1)C(F)(F)CCCCOc1ccccc1      criterion met
3       Cc1nnc(C(=O)C(F)(F)CCCCOc2ccccc2)o1  criterion not met
4         O=C(c1cccnc1)C(F)(F)CCCCOc1ccccc1  criterion not met
5  O=C(c1cccnc1)C(F)(F)CCCCOc1cccc(OCc2ccccc2)c1      criterion met
6    CC(=O)C(F)(F)CCCCOc1cccc(OCc2ccccc2)c1      criterion met

###

Each item that follows carries a reported Ki.
# study-target: fatty acid amide hydrolase (FAAH) (Rattus norvegicus (Rat), UniProt P97612)
# Sequence (P97612 whole entry): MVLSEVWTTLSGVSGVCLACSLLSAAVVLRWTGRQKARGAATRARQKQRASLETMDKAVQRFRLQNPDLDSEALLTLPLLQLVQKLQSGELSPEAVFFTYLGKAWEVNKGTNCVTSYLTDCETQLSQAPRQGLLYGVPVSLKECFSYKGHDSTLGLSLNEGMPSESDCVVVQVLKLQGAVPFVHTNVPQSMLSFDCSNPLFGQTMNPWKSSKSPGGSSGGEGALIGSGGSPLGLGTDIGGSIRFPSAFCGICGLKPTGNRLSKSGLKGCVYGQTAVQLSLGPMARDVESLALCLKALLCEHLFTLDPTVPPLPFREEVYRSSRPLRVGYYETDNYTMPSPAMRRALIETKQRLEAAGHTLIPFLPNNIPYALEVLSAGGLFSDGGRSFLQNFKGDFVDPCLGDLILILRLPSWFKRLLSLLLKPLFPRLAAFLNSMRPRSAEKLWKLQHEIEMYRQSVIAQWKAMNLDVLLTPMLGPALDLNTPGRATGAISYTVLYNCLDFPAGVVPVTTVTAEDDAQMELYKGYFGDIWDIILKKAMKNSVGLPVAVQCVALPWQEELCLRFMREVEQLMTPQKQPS
# assay-notes: FAAH enzyme assay: inhibition of anandamide (AEA) hydrolysis, arachidonic acid quantified by HPLC
# Type: biochemical
# condition-description: eight-point assay; calculated with Prizm software; read-out: Ki
endpoint-label: Ki

                                    compound  recorded_measurement
 0     O=C(CCCOc1ccc(OCc2ccccc2)cc1)C(F)(F)F                150 nM
 1            O=C(CCCCCOc1ccc(O)cc1)C(F)(F)F                800 nM
 2    O=S(=O)(Cl)CCCCCCCc1ccc(OCc2ccccc2)cc1              12700 nM
 3                     CCOC(=O)Nc1ccc(Br)cc1               1200 nM
 4        Cc1nnc(C(=O)C(F)(F)c2ccc(Br)cc2)o1                530 nM
 5     Cc1nnc(C(=O)C(F)(F)CCCCCCOc2ccccc2)o1                  9 nM
 6  O=C(c1cccnc1)C(F)(F)CCCCOc1cccc(OCc2ccccc2)c1                  7 nM
 7                O=C(CCCOc1ccccc1O)C(F)(F)F              15300 nM
 8           O=C(CCCCCCOc1ccc(O)cc1)C(F)(F)F                 54 nM
 9  O=C(CCCCCCOc1ccc(OCc2ccccc2)cc1)c1nnc(COCc2ccccc2)o1                  2 nM
10       O=C(CCCOc1ccccc1OCc1ccccc1)C(F)(F)F               2280 nM
11  Cc1nnc(C(=O)C(F)(F)c2ccc(-c3ccccc3)cc2)o1                 65 nM
12             O=C(CCCCOc1ccc(O)cc1)C(F)(F)F               2600 nM
13             O=C(CCCCOc1cccc(O)c1)C(F)(F)F               2070 nM
14   O=C(CCCCCOc1cccc(OCc2ccccc2)c1)C(F)(F)F                 52 nM
15                 O=C(CCCOc1ccccc1)C(F)(F)F               1200 nM
16                  O=C(CCCc1ccccc1)C(F)(F)F               4600 nM
17            Oc1cccc(OCCCC(O)(O)C(F)(F)F)c1               2500 nM
18  O=C(CCCCCCOc1ccc(OCc2ccccc2)cc1)C(F)(F)F                830 nM
19  O=C1c2ccccc2S(=O)(=O)N1CCCCOc1ccc(O)cc1 [Compound 84, N-[4-(4-Hydroxy-phenoxy)-butyl]saccharin]                900 nM
20              O=S(=O)(F)CCCCCCCc1cccc(O)c1                 26 nM
21       Cc1nnc(C(=O)C(F)(F)CCCCOc2ccccc2)o1                100 nM
22    COS(=O)(=O)CCCCCCCc1ccc(OCc2ccccc2)cc1                 78 nM
23     O=C(CCCCCOc1ccccc1OCc1ccccc1)C(F)(F)F                553 nM
24  O=S(=O)(Cl)CCCCOc1ccccc1 [Compound 16, 4-Phenoxybutyl sulfonyl chloride]              12700 nM
25  OC(O)(c1ccccn1)C(F)(F)CCCCOc1ccccc1 [Compound 89.9 Hydrate form]                 12 nM
26    O=S(=O)(Cl)CCCCCCCc1cccc(OCc2ccccc2)c1               2900 nM
27         O=C(c1cccnc1)C(F)(F)CCCCOc1ccccc1                 52 nM
28  O=C(CCCCCc1ccccc1)C(F)(F)F [Compound 27.3, 1,1,1-Trifluoro-7-phenyl-2-heptanone, reference compound]               1230 nM
29  CCOC(=O)C(=O)c1ccc(-c2ccccc2)cc1 [Compound 91.1, Ethyl 2-(biphenyl-4-yl)-2-oxoacetate]               4600 nM
30         O=C(c1ccccn1)C(F)(F)CCCCOc1ccccc1                 24 nM
31      O=C(CCCCOc1ccccc1OCc1ccccc1)C(F)(F)F                 46 nM
32               CC(=O)C(F)(F)CCCCCOc1ccccc1                 70 nM
33              O=C(CCCCCOc1ccccc1O)C(F)(F)F               1800 nM
34                O=C(CCCCOc1ccccc1)C(F)(F)F               2800 nM
35      O=S(=O)(Cl)CCCCCCCc1ccccc1OCc1ccccc1                410 nM

The measured values listed here are drawn from patent US9102622B2.
